Here, each record is paired with measured EC50 data.
- measured_target: T1, Fc-tagged human Glypican 3 protein (Acro Biosystems, cat #GP3-H5258) (human, UniProt P51654 25-559)
- T1 construct: Bought; also called recombinant human GPC3; not shown: Fc tag
- T1 sequence (P51654 25-559 limits assumed): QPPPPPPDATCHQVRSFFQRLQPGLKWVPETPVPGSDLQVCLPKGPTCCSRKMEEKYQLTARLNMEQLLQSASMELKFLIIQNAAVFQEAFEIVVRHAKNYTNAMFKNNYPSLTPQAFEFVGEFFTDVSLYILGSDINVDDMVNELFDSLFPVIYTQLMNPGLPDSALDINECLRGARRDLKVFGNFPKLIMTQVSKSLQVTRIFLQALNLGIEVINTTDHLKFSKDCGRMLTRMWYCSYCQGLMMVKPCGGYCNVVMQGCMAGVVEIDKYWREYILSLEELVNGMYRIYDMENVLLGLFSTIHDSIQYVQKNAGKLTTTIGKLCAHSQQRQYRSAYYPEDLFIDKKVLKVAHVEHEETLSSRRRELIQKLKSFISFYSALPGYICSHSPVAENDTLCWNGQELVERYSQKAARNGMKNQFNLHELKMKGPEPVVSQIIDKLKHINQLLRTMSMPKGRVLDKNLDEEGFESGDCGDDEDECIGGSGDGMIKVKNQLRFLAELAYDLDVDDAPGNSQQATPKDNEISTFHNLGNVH
- procedure_details: ELISA, Fab titrated on coated Fc-tagged human GPC3, anti-Lambda HRP detection
// note: answer is a bare numeric in ng/mL

Below, each entry is followed by its recorded EC50 result.
P17-16E6 Fab (Fab, V domains shown, Fab format) VH: EVQLVESGGGLVQPGGSLRLSCAASGFTFRKYAMSWVRQAPGKGLEWVSSLSASGSATYYADSVKGRFTISRDNSKNTLYLQMNSLRAEDTAVYYCAKEADYSMGWMHYYYGMDVWGQGTTVTVSS VL: QSVLTQPPSVSGAPGQRVTISCTGSSSGYDVHWYQQLPGRAPKLLIYGSNNRPSGVPDRFSGSNSGTSASLAITGLQAEDEADYYCQSYDSSLNAIFGGGTKLTVL; 9.6
P17-11F4 Fab (Fab, V domains shown, Fab format) VH: EVQLVESGGGLVQPGGSLRLSCAASGFTFKDYAMSWVRQAPGKGLEWVSALSGSGGATYYADSVKGRFTISRDNSKNTLYLQMNSLRAEDTAVYYCAKEMDFRYGWMHYYYGMDVWGQGTTVTVSS VL: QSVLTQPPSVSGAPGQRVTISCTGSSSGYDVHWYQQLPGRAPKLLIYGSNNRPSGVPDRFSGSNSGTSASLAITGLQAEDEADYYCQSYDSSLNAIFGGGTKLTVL; 9.5

So for P17-13F3 Fab (Fab, V domains shown, Fab format) VH: EVQLVESGGGLVQPGGSLRLSCAASGFTFEGYAMSWVRQAPGKGLEWVSNVSGSGDGTYYADSVKGRFTISRDNSKNTLYLQMNSLRAEDTAVYYCAKEYDYKTGWMHYYYGMDVWGQGTTVTVSS VL: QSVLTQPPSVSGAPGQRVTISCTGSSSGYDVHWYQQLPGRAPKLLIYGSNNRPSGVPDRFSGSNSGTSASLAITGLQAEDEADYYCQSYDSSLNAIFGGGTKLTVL , the logged EC50 turned out to be 11.7
